- Experimental details: chemical genetic growth profiling, strain panel (AID 1159580);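 note: tested at 20 µM; growth read once vehicle control cultures reached saturation at 30 °C; 1 = growth at the plate median or of vehicle wells; lower values mean less growth of the strain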
- Stated conditions: S. cerevisiae deletion strains, growth OD, locus YDR001C, strain nth1
In all, about 5,500 compounds went through this assay and about 2,000 (36%) were called active. Not shown: some 18% with an inconclusive outcome. Cut-off read from the data, not from the text of the source: active = normalized growth mostly below about 0.91 (no sharp cut-off); inconclusive = no clear call, values can overlap the other calls; inactive = mostly above about 0.92. The list shows a part of the results.
Valid outcomes are listed here; reply with one: T = active, F = inactive

// below: answered molecules
Recorded test outcome, item C[C@@H]1CC[C@@]23CCC4(C)[C@@](C=CC5[C@@]6(C)CC[C@H](O)C(C)(C)C6CC[C@]54C)(OC2=O)C3[C@H]1C (some centres not stated)
F

Recorded test outcome, item "CC[C@@]1(O)C(=O)OCc2c1cc1n(c2=O)Cc2cc3ccccc3nc2-1"
T

Recorded test outcome, item CC(=O)O[C@@H]1CC2C(C)(CC[C@H](O)C2(C)C)C2CC[C@]3(C)C(=CC(=O)O[C@H]3c3ccoc3)C21C (some centres not stated)
F

Recorded test outcome, item C[C@@H]1CC[C@@]23CCC4(C)[C@@](C=CC5[C@@]6(C)CCC(=O)C(C)(C)C6CC[C@]54C)(OC2=O)C3[C@H]1C (some centres not stated)
F

Recorded test outcome, item "CC[C@@]1(O)C(=O)OCc2c1cc1n(c2=O)Cc2cc3cc(O)ccc3nc2-1"
F

More entries:
Recorded test outcome, item CC1(C)C(=O)CC[C@@]2(C)C1C[C@@H](O)[C@@]1(C)C3=CC(=O)O[C@@H](c4ccoc4)[C@]3(C)CCC21 (some centres not stated)
F

Recorded test outcome, item "CC(C)C[C@@H](NC(=O)OCC1c2ccccc2-c2ccccc21)C(=O)O"
F

---

- Experimental details: chemical genetic growth profiling, strain panel (AID 1159580);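 note: tested at 20 µM; growth read once vehicle control cultures reached saturation at 30 °C; 1 = growth at the plate median or of vehicle wells; lower values mean less growth of the strain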
- Stated conditions: S. cerevisiae deletion strains, growth OD, locus YML032C, strain rad52, hits give low values
The whole screen tested about 5,500 compounds, of which about 2,000 (36%) were called active. Another 18% or so got no clear call; they are omitted. The list shows a part of the results.
Measurement label: normalized growth
Keep the answer to the number alone.

Solved entries:
Suppose we examine the molecule COC(=O)CC1C(C)(C)C(OC(C)=O)[C@@H]2[C@@H](OC(C)=O)[C@]34O[C@@]2(O)[C@]1(C)C3CC[C@]1(C)C4=CC(=O)O[C@H]1c1ccoc1 (some centres undefined) ; what normalized growth value has been reported?
0.991

Suppose we examine the molecule "NCCCCN" ; what normalized growth value has been reported?
0.992

Now examine the next entry.
Suppose we examine the molecule "CCCc1nn(C)c2c(=O)[nH]c(-c3cc(S(=O)(=O)N4CCN(C)CC4)ccc3OCC)nc12" ; what normalized growth value has been reported?
1

---

- Experimental details: chemical genetic growth profiling, strain panel (AID 1159580);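 note: tested at 20 µM; growth read once vehicle control cultures reached saturation at 30 °C; 1 = growth at the plate median or of vehicle wells; lower values mean less growth of the strain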
- Stated conditions: S. cerevisiae deletion strains, growth OD, locus YDR388W, hits give low values
Out of some 5,500 compounds screened, about 2,000 (36%) were called active. Another 18% or so got no clear call; they are omitted. This is one part of the list.
Measurement label: normalized growth
Keep the answer to the number alone.

Solved entries:
Suppose we examine the compound CC1Cc2ccccc2N1NC(=O)c1ccc(Cl)c(S(N)(=O)=O)c1 (stereo unspecified) ; what normalized growth value has been reported?
1

Suppose we examine the compound "O=C(O)CN(CCN(CC(=O)O)CC(=O)O)CC(=O)O" ; what normalized growth value has been reported?
1.02

Suppose we examine the compound "N#Cc1c(Cl)cccc1Cl" ; what normalized growth value has been reported?
1.01

Suppose we examine the compound Cc1ccccc1N1C(=O)c2cc(S(N)(=O)=O)c(Cl)cc2NC1C (stereo unspecified) ; what normalized growth value has been reported?
0.994

More entries:
Suppose we examine the compound CC1CCCC(C)N1NC(=O)c1ccc(Cl)c(S(N)(=O)=O)c1 (stereo unspecified) ; what normalized growth value has been reported?
0.998

Suppose we examine the compound "COc1cc(C(=O)O)cc(OC)c1OC" ; what normalized growth value has been reported?
1.03
